- System: KM12
- experiment_description: NCI tumour cell line growth inhibition, 48 h
The source made the active and inactive calls. Cut-off read from the data, not from the text of the source: active = GI50 up to about 1.1 µM and inactive = higher. Bridge positions count the residues as written; N and C are the ends. Square brackets hold non-standard residues; d marks the D form. Peptide text beside a SMILES is read from it. I, II: the chains in the order shown. * marks the point of attachment. Quinoxaline2carbonyl = O=C(c1cnc2ccccc2n1)*; NMeV = CN[CH](C(=O)O)C(C)C; NMeC = CN[CH](CS)C(=O)O
Pick from True for active, False for inactive when you respond.

>>> label_value("BrC1(Br)C2/C=C\\CCCCC21 (stereo unspecified)")
"False"

// outcome(item) with item = CC1NC(=O)C(NC(=O)c2cnc3ccccc3n2)COC(=O)C(C(C)C)N(C)C(=O)C2CSSCC(C(=O)N(C)C(C(C)C)C(=O)OCC(NC(=O)c3cnc4ccccc4n3)C(=O)NC(C)C(=O)N2C)N(C)C1=O (stereo unspecified) (I: Quinoxaline2carbonyl-SA[NMeC][NMeV] / II: Quinoxaline2carbonyl-SA[NMeC][NMeV]; ester I:1-II:C, I:C-II:1; disulfide I:3-II:3; configuration not given here)
True

// outcome(item) with item = CC1(C)C(C(=O)OC(C#N)c2cccc(OCC(=O)OCc3ccccc3)c2)C1(C)C (stereo unspecified)
False

// outcome(item) with item = CCCCOC(=O)C(=O)C(CC(C(=O)Cc1ccccc1)c1ccccc1)C(=O)C=C(C)C (stereo unspecified)
False

// outcome(item) with item = C/C(=C1\C(=O)C(c2ccccc2)N(c2ccccc2)C1=O)c1ccc(Cl)cc1 (stereo unspecified)
False

// outcome(item) with item = CC(C)C1=CC23CCC4C(C)(C(=O)O)CCCC4(C)C2CC1C1C(=O)N(CCCCCCN2C(=O)C4C5CC6C7(C)CCCC(C)(C(=O)O)C7CCC6(C=C5C(C)C)C4C2=O)C(=O)C13 (stereo unspecified)
False

Numbers sourced from ChEMBL document CHEMBL1201862.
